Molecular target: T1, 人TIM-3 (recombinant antigen of the ELISA of Example 3: TIM-3-hFc captured on goat-anti-hFc, or Tim-3-his … (human, UniProt Q8TDQ0 22-202))
T1 construct: extracellular domain; also called 人TIM-3抗原; not shown: a His tag instead if Tim-3-his was coated
Assay: ELISA on human TIM-3 (Example 3)
QUANTITY_KIND: EC50
Phrase the answer as number then unit, nothing more needed.

Give reported EC50 value for 人源化ab18抗体 (antibody, human IgG4 S228P, kappa, V domains shown, Humanized, hIgG4-kappa) VH: EVQLVESGGGLVKPGGSLRLSCAASGFTFSDYYMTWVRQAPGKGLEWVASINYDGRNTYYLDSLKSRFTISRDNAKNSLYLQMNSLRAEDTAVYYCARGYYYYGSSPNYFDYWGQGTLVTVSS VL: DIQMTQSPSSLSASVGDRVTITCRASENIYSYLTWYQQKPGKAPKLLIYNAKTLAEGVPSRFSGSGSGTDFTLTISSLQPEDFATYYCQQHYGTPLTFGQGTKLEIKR
0.198 nM

Give reported EC50 value for 人源化ab30抗体 (antibody, human IgG4 S228P, kappa, V domains shown, Humanized, hIgG4-kappa) VH: EVQLVESGGGLVKPGGSLRLSCAASGFTFSDYYMTWVRQAPGKGLEWVSSINYDGRNTYYLDSLKSRFTISRDNAKNSLYLQMNSLRAEDTAVYYCARGYYYYGSSPNYFDYWGQGTLVTVSS VL: DIQMTQSPSSLSASVGDRVTITCRASENIYSYLTWYQQKPGKSPKLLVYNAKTLAEGVPSRFSGSGSGTQFSLTISSLQPEDFANYYCQQHYGTPLTFGQGTKLEIKR
0.233 nM

Give reported EC50 value for 人源化ab32抗体 (全人源化抗体) (antibody, human IgG4 S228P, kappa, V domains shown, Fully humanized (no back mutations), hIgG4-kappa) VH: EVQLVESGGGLVKPGGSLRLSCAASGFTFSDYYMTWVRQAPGKGLEWVSSINYDGRNTYYLDSLKSRFTISRDNAKNSLYLQMNSLRAEDTAVYYCARGYYYYGSSPNYFDYWGQGTLVTVSS VL: DIQMTQSPSSLSASVGDRVTITCRASENIYSYLTWYQQKPGKAPKLLIYNAKTLAEGVPSRFSGSGSGTDFTLTISSLQPEDFATYYCQQHYGTPLTFGQGTKLEIKR
0.184 nM

Give reported EC50 value for 人源化ab17抗体 (antibody, human IgG4 S228P, kappa, V domains shown, Humanized, hIgG4-kappa) VH: EVQLVESGGGLVKPGGSLRLSCAASGFTFSDYYMTWVRQAPGKGLEWVASINYDGRNTYYLDSLKSRFTISRDNAKNSLYLQMNSLRAEDTAVYYCARGYYYYGSSPNYFDYWGQGTLVTVSS VL: DIQMTQSPSSLSASVGDRVTITCRASENIYSYLTWYQQKPGKSPKLLVYNAKTLAEGVPSRFSGSGSGTQFTLTISSLQPEDFATYYCQQHYGTPLTFGQGTKLEIKR
0.212 nM

Give reported EC50 value for 人源化ab23抗体 (antibody, human IgG4 S228P, kappa, V domains shown, Humanized, hIgG4-kappa) VH: EVQLVESGGGLVKPGGSLRLSCAASGFTFSDYYMTWVRQAPGKGLEWVASINYDGRNTYYLDSLKSRFTISRDNAKNILYLQMNSLRAEDTAVYYCARGYYYYGSSPNYFDYWGQGTLVTVSS VL: DIQMTQSPSSLSASVGDRVTITCRASENIYSYLTWYQQKPGKSPKLLVYNAKTLAEGVPSRFSGSGSGTQFSLTISSLQPEDFANYYCQQHYGTPLTFGQGTKLEIKR
0.21 nM

Give reported EC50 value for mab15-c (嵌合抗体, hIgG4-κ) (antibody, V domains shown, Chimeric antibody: mab15 variable regions with human IgG4 / kappa constant regions) VH: EVKLVESEGGLVQPGSSMKLSCTASGFTFSDYYMTWVRQVPEKGLEWVASINYDGRNTYYLDSLKSRFIISRDNAKNILYLQMSSLKSEDTATYYCARGYYYYGSSPNYFDYWGQGTTLTVSS VL: DIQMTQSPASLSASVGETVTITCRASENIYSYLTWYQQKQGKSPQLLVYNAKTLAEGVPSRFSGSGSGTQFSLRINSLQPEDFGNYYCQQHYGTPLTFGAGTKLELKR
0.183 nM

New cases:
Give reported EC50 value for 人源化ab16 抗体 (antibody, human IgG4 S228P, kappa, V domains shown, Humanized, hIgG4-kappa) VH: EVQLVESGGGLVKPGGSLRLSCAASGFTFSDYYMTWVRQAPGKGLEWVASINYDGRNTYYLDSLKSRFTISRDNAKNSLYLQMNSLRAEDTAVYYCARGYYYYGSSPNYFDYWGQGTLVTVSS VL: DIQMTQSPSSLSASVGDRVTITCRASENIYSYLTWYQQKPGKSPKLLVYNAKTLAEGVPSRFSGSGSGTQFSLTISSLQPEDFANYYCQQHYGTPLTFGQGTKLEIKR
0.145 nM

Give reported EC50 value for 人源化ab24抗体 (antibody, human IgG4 S228P, kappa, V domains shown, Humanized, hIgG4-kappa) VH: EVQLVESGGGLVKPGGSLRLSCAASGFTFSDYYMTWVRQAPGKGLEWVASINYDGRNTYYLDSLKSRFTISRDNAKNILYLQMNSLRAEDTAVYYCARGYYYYGSSPNYFDYWGQGTLVTVSS VL: DIQMTQSPSSLSASVGDRVTITCRASENIYSYLTWYQQKPGKSPKLLVYNAKTLAEGVPSRFSGSGSGTQFTLTISSLQPEDFATYYCQQHYGTPLTFGQGTKLEIKR
0.243 nM
